assayed-target: CCK-B (Cavia porcellus)
Construct: guinea pig brain (CCK-B); from tissue; host or cells: guinea pig brain
Sequence (H0VZC5 1-426): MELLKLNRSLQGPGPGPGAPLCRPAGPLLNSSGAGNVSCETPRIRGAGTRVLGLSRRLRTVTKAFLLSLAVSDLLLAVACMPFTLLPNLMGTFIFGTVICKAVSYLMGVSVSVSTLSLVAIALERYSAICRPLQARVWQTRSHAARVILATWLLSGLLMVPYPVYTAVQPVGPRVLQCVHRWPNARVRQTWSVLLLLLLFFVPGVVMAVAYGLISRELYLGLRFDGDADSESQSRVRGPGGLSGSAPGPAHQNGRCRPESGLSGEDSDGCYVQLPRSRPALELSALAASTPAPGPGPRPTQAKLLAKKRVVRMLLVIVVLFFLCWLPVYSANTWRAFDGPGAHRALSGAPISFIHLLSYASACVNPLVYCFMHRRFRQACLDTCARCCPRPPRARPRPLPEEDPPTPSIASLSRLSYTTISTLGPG
measurement-notes: displacement of specific 125I-CCK from guinea pig brain (CCK-B receptor binding)
test-conditions: read-out: CCK RECEPTOR BINDING RESULTS IC50 125I-CCK Brain
Description: The CCK-A and CCK-B antagonising activity of the compounds described herein was evaluated using the assays described in published European patent application no. 0514133. The method essentially involves determining the concentration of the test compound required to displace 50% of the specific ^125 I-CCK from rat pancreas (CCK-A) or guinea pig brain (CCK-B). The data in Table 1 were obtained for compounds of the Examples.
pIC50: −log10 of the molar value. Structures can show the parent of a compound that is named as a salt.
parameter-measured: pIC50

• Cc1cccc(NC(=O)NC2N=C(N3CC4CCC3CC4)c3ccccc3N(C)C2=O)c1 (racemic) = 8.26

P = CN1C(=O)C(NC(=O)Nc2ccc3c(c2)CCC3)N=C(N(C)C2CCCCCC2)c2ccccc21 (single isomer, unassigned; (-)) [Example 70, Hydrochloride]
Q = Cc1cccc(NC(=O)NC2N=C(N3[C@H](C)C[C@H](C)C[C@@H]3C)c3ccccc3N(C)C2=O)c1 (single isomer, unassigned) [24 (enantiomer B)]
// compare: P vs Q , metric pIC50, want the smaller Lab note: record the label of whichever item you select. Q
(Q: 7.30, P: 9.21)
